- TARGET: human A2a receptor (Homo sapiens, UniProt P29274)
- Construct: purchased Perkin-Elmer RBHA2AM400UA; host or cells: HEK293
- Sequence (P29274 whole entry): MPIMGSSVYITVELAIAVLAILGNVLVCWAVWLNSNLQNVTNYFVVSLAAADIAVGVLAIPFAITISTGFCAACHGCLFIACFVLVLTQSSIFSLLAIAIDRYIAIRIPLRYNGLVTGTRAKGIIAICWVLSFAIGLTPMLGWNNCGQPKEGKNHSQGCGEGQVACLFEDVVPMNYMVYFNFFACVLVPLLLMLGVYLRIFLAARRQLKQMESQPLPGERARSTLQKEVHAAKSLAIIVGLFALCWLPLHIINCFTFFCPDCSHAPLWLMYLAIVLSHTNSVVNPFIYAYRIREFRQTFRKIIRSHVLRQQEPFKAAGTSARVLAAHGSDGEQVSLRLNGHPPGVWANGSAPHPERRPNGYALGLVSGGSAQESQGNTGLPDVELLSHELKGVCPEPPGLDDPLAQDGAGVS
- ASSAY_NOTES: A2a receptor competition binding assay (Scintillation Proximity, tritiated radioligand)
- CONDITION_INFO: membranes from HEK293 cells expressing the human A2a receptor; 0.5 nM tritiated ligand; SPA beads; one hour at room temperature; read-out: A2a EC50
QUANTITY_MEASURED: EC50 (nM)

I: COc1cccc2c1nc(N)n1nc(CN3CCN(c4ccc(OCC5CC5)cc4)CC3C)nc21 (centres unmarked)
II: COc1cccc2c1nc(N)n1nc(C(=O)N3CCN(CC(F)(F)F)CC3C)nc21 (centres unmarked)
Challenge: Among I and II , which shows a numerically higher EC50 result? Please indicate the selected item by its label.
Response given: II
(II: 6.6 nM, I: 2.2 nM)
